# System: HSV-1
# Test: HSV Antiviral (ELISA) Assay in Vero cells
# Type: cell-based, herpes simplex virus type 1
# Applied Conditions: Human alphaherpesvirus 1; HSV-1, Vero cells; read-out: IC50 (ug/ml) HSV

{"Molecule": "CC(NC(=S)Nc1ccc(NC(=O)c2cc3ccccc3cn2)cc1)c1cc2ccccc2o1 (centres unmarked)", "IC50": "> 10 µg/mL"}
{"Molecule": "O=C(Nc1ccc(NC(=S)NCc2cccc(I)c2)cc1)c1ccccc1F", "IC50": "> 10 µg/mL"}
{"Molecule": "COC(=O)c1cccc(NC(=S)Nc2ccc(NC(=O)c3ccccc3F)cc2)c1", "IC50": "8 µg/mL"}
{"Molecule": "O=C(Nc1ccc(NC(=S)Nc2cc(Cl)c(Cl)c(Cl)c2)cc1)c1ccccc1F", "IC50": "0.7 µg/mL"}
{"Molecule": "CC(NC(=S)Nc1ccc(NC(=O)c2ccccc2F)cc1)c1ccccc1F (centres unmarked)", "IC50": "> 10 µg/mL"}
{"Molecule": "O=C(Nc1ccc(NC(=S)Nc2cc(Cl)ccc2Cl)cc1)c1ccccc1F", "IC50": "4 µg/mL"}
{"Molecule": "CC(O)c1ccc(NC(=S)Nc2ccc(NC(=O)c3ccccc3F)cc2)cc1Cl (centres unmarked)", "IC50": "4 µg/mL"}
{"Molecule": "CC(NC(=S)Nc1ccc(NC(=O)c2ccc(C#N)cc2)cc1)c1ccc(F)cc1 (centres unmarked)", "IC50": "> 10 µg/mL"}
